Here, each record is paired with measured % Covalent Modification with Indicated Protein at 6 hr, D92C/G12D data.
Target: KRAS D92C/G12D (Homo sapiens, UniProt P01116, D92C/G12D)
Construct: made in house
Assay: Covalent modification of KRAS mutant by competition probes (TOF mass spectrometry, Agilent RapidFire)
Assay type: binding
Details: probe 30 μM
// units = %; emit number, no label

Reference set (3 entries):
INSERT INTO results (compound, unit_of_measurement, recorded_measurement) VALUES
  ('C=CC(=O)N1CCC(Nc2nc(N3CCN(C(C)=O)CC3)c3cc(Cl)c(-c4c(O)cccc4F)c(F)c3n2)C1 (stereo not shown)', '%', 5),
  ('C=CS(=O)(=O)N1CCC(Nc2nc(N3CCN(C(C)=O)CC3)c3cc(Cl)c(-c4c(O)cccc4F)c(F)c3n2)CC1', '%', 11),
  ('C=CS(=O)(=O)NC1CCCN(c2nc(N3CCN(C(C)=O)CC3)c3cc(Cl)c(-c4c(O)cccc4F)c(F)c3n2)C1 (stereo not shown)', '%', 12);

For record C=CS(=O)(=O)NC1CCN(c2nc(N3CCN(C(C)=O)CC3)c3cc(Cl)c(-c4c(O)cccc4F)c(F)c3n2)C1 (stereo not shown) the listed % Covalent Modification with Indicated Protein at 6 hr, D92C/G12D is 8
